# Study Target: Factor D (Homo sapiens (Human), UniProt P00746)
# Sequence (P00746 26-253): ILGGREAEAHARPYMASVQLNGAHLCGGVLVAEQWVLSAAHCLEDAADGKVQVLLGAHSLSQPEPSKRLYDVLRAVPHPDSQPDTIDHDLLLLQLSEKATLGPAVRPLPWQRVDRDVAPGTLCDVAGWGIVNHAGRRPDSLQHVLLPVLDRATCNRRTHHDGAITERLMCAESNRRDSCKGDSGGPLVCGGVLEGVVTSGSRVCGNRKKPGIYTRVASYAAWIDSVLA
# Test Description: biochemical
# Format: biochemical
# Applied Conditions: read-out: IC50
pIC50: −log10 of the molar value. Structures can show the parent of a compound that is named as a salt.
Label rule, in plain words: pIC50 of 7 and up is met, under 7 is not met.

stdin: Evaluate `CO[C@H]1[C@@H](C(=O)Nc2cccc(OC(F)(F)F)c2F)N(C(=O)Cn2nc(C(N)=O)c3ccccc32)C[C@@H]1F` : pIC50 at minimum 7?
stdout: met

stdin: Evaluate `NC(=O)n1cc(NC(=O)N2C[C@@H](N)C[C@H]2C(=O)NCc2cccc(O)c2)c2ccccc21` : pIC50 at minimum 7?
stdout: not met

stdin: Evaluate CO[C@H]1[C@@H](C(=O)NCc2cccc(Cl)c2F)N(C(=O)Cn2cc(C(C)=O)c3cc(C)ncc32)C[C@@H]1F [Example 658, formate] : pIC50 at minimum 7?
stdout: met

stdin: Evaluate `COC(=O)[C@H](COC(C)(C)C)NC(=O)[C@@H]1C[C@H](N)CN1C(=O)Nc1cn(C(N)=O)c2ccccc12` : pIC50 at minimum 7?
stdout: not met

stdin: Evaluate `CC[C@H](C)[C@H](NC(=O)[C@@H]1C[C@@H](F)CN1C(=O)Nc1cn(C(N)=O)c2ccccc12)C(=O)O` : pIC50 at minimum 7?
stdout: not met

stdin: Evaluate `NC(=O)n1cc(NC(=O)N2[C@@H]3C[C@@H]3C[C@H]2C(=O)Nc2cncc(Cl)c2)c2ccccc21` : pIC50 at minimum 7?
stdout: not met

stdin: Evaluate `NC(=O)n1cc(NC(=O)N2C[C@@H](N)C[C@H]2C(=O)NCc2ccc(C(F)(F)F)cc2)c2ccccc21` : pIC50 at minimum 7?
stdout: not met

stdin: Evaluate `CC(=O)c1nn(CC(=O)N2C[C@@H]3C[C@@H]3[C@H]2C(=O)NCc2cccc(Cl)c2F)c2cnc(C)cc12` : pIC50 at minimum 7?
stdout: met

stdin: Evaluate `NC[C@@]1(F)C[C@@H](C(=O)Nc2cccc(OC(F)(F)F)c2)N(C(=O)Nc2cn(C(N)=O)c3ccccc23)C1` : pIC50 at minimum 7?
stdout: not met

stdin: Evaluate `C[C@H]1CC[C@@H](C(=O)Nc2cccc(OC(F)(F)F)c2)N1C(=O)Nc1cn(C(N)=O)c2ccccc12` : pIC50 at minimum 7?
stdout: not met

stdin: Evaluate `COC(=O)c1cc(Br)cc(NC(=O)[C@@H]2SCCN2C(=O)Nc2cn(C(N)=O)c3ccccc23)c1` : pIC50 at minimum 7?
stdout: not met

stdin: Evaluate `CC(=O)c1cn(CC(=O)N2C[C@H](F)[C@@H](F)[C@H]2C(=O)NCc2cccc(Cl)c2F)c2ccccc12` : pIC50 at minimum 7?
stdout: met

stdin: Evaluate `NC(=O)n1cc(NC(=O)N2C[C@H](F)C[C@H]2C(=O)N[C@H](CO)c2cccc(Cl)c2F)c2ccccc21` : pIC50 at minimum 7?
stdout: met

stdin: Evaluate `NC(=O)c1nn(CC(=O)N2[C@@H]3C[C@@H]3C[C@H]2C(=O)NCc2cccc(Cl)c2F)c2ncccc12` : pIC50 at minimum 7?
stdout: met

stdin: Evaluate `NC(=O)c1nn(CC(=O)N2[C@H](C(=O)Nc3cccc(Br)n3)C[C@@]3(CO)C[C@@H]23)c2ccccc12` : pIC50 at minimum 7?
stdout: met

stdin: Evaluate `C[C@@]1(F)C[C@@H](C(=O)NCc2cccc(Cl)c2F)N(C(=O)Cn2cc(C(=O)CO)c3ccccc32)C1` : pIC50 at minimum 7?
stdout: not met

stdin: Evaluate `NC(=O)c1nn(CC(=O)N2[C@@H]3C[C@@H]3C[C@H]2C(=O)Nc2cccc(-c3ccccc3Cl)c2F)c2cnccc12` : pIC50 at minimum 7?
stdout: met

stdin: Evaluate `NC(=O)n1cc(NC(=O)N2CCC[C@H]2C(=O)Nc2cccc(OC(F)(F)F)c2)c2ccc(OCc3ccccc3)cc21` : pIC50 at minimum 7?
stdout: not met

stdin: Evaluate C[C@H](NC(=O)[C@@H]1[C@H](O)CCN1C(=O)Nc1cn(C(N)=O)c2ccccc12)c1cccc(Cl)c1F (single isomer, unassigned) : pIC50 at minimum 7?
stdout: met

stdin: Evaluate `Cc1cc2c(C(N)=O)nn(CC(=O)N3[C@@H]4C[C@@H]4C[C@H]3C(=O)Nc3cccc(OC(F)(F)F)c3F)c2c(C)n1` : pIC50 at minimum 7?
stdout: met

stdin: Evaluate `NC(=O)c1cn(CC(=O)N2C[C@H](F)[C@@H](N)[C@H]2C(=O)NCc2cccc(Cl)c2F)c2ccccc12` : pIC50 at minimum 7?
stdout: not met

stdin: Evaluate `COC(=O)[C@H](CC(C)C)NC(=O)[C@@H]1C[C@H]2C[C@H]2N1C(=O)Cn1nc(C(C)=O)c2cccnc21` : pIC50 at minimum 7?
stdout: not met

stdin: Evaluate `NC(=O)n1cc(NC(=O)N2[C@@H]3C[C@@H]3C[C@H]2C(=O)NCc2cccc(Cl)c2F)c2cc(CCO)ccc21` : pIC50 at minimum 7?
stdout: met

stdin: Evaluate `NC(=O)n1cc(NC(=O)N2C[C@@H](N)C[C@H]2C(=O)NCc2cccc(C(F)(F)F)c2)c2ccccc21` : pIC50 at minimum 7?
stdout: not met

stdin: Evaluate `NC(=O)n1cc(NC(=O)N2[C@@H](CO)CC[C@H]2C(=O)Nc2cccc(OC(F)(F)F)c2)c2ccccc21` : pIC50 at minimum 7?
stdout: not met

====

# Study Target: UniProtKB P00746
# Test Description: biochemical
# Assay type: biochemical
# Applied Conditions: read-out: IC50
pIC50: −log10 of the molar value.
Label rule, in plain words: pIC50 of 6 and up is True, under 6 is False.

stdin: Evaluate `CNC(=O)n1cc(NC(=O)N2CCC[C@H]2C(=O)Nc2cccc(OC(F)(F)F)c2)c2ccccc21` : pIC50 at minimum 6?
stdout: False

stdin: Evaluate `CS(=O)(=O)c1cccc(NC(=O)[C@@H]2CCCN2C(=O)Nc2cn(C(N)=O)c3ccccc23)c1` : pIC50 at minimum 6?
stdout: False

stdin: Evaluate `NC(=O)n1cc(NC(=O)N2C[C@@H](N)C[C@H]2C(=O)NCc2cccc(Cl)c2)c2ccccc21` : pIC50 at minimum 6?
stdout: True

stdin: Evaluate NC(=O)n1cc(NC(=O)N2C[C@@H](N)C[C@H]2C(=O)NC(CO)c2cc(Cl)cc(Cl)c2)c2ccccc21 (stereo partly shown) : pIC50 at minimum 6?
stdout: False

stdin: Evaluate `Cc1cc2c(C(N)=O)nn(CC(=O)N3[C@@H]4C[C@@H]4C[C@H]3C(=O)Nc3cccc(Br)n3)c2cn1` : pIC50 at minimum 6?
stdout: True

stdin: Evaluate `CCc1cccc(CNC(=O)[C@@H]2C[C@H](N)CN2C(=O)Nc2cn(C(N)=O)c3ccccc23)c1` : pIC50 at minimum 6?
stdout: False

stdin: Evaluate `CC(=O)c1cn(CC(=O)N2[C@@H]3C[C@@H]3C[C@H]2C(=O)NCc2cccc(Cl)c2F)c2cc(OCc3nn[nH]n3)ccc12` : pIC50 at minimum 6?
stdout: True

====

# Study Target: Factor D (Homo sapiens (Human), UniProt P00746)
# Test Description: biochemical
# Assay type: biochemical
Quantity Kind: log10(IC50) (log10 of the value in nM)
Response schema: value (number) is log10 of IC50 in units of nM.

stdin: Note down log10(IC50) recorded for NC(=O)n1cc(NC(=O)N2C[C@@H](N)C[C@H]2C(=O)NC[C@H]2CCCC[C@@H]2O)c2ccccc21 (relative stereo) [Example 75]
stdout: 4.10

stdin: Note down log10(IC50) recorded for NC(=O)n1cc(NC(=O)N2CC3CC2(C(=O)NCc2cccc(Cl)c2F)C3)c2ccccc21 [Example 136]
stdout: 4.25

stdin: Note down log10(IC50) recorded for NC(=O)n1cc(CC(=O)N2C[C@@H]3C[C@@H]3[C@H]2C(=O)NCc2cccc(Cl)c2F)c2cc(OCCO)ccc21 (relative stereo) [Example 465]
stdout: 3.20

stdin: Note down log10(IC50) recorded for NC(=O)n1cc(NC(=O)N2C[C@@H]3C[C@@H]3[C@H]2C(=O)NCc2cccc(Cl)c2F)c2cc(OCCO)ccc21 (relative stereo) [Example 382]
stdout: 2.26

stdin: Note down log10(IC50) recorded for CO[C@H]1[C@@H](C(=O)NCc2cccc(Cl)c2F)N(C(=O)Cn2cc(C(C)=O)c3ccccc32)C[C@@H]1F [Example 505]
stdout: 1.15

stdin: Note down log10(IC50) recorded for NC(=O)n1cc(CC(=O)N2C[C@@H](N)C[C@H]2C(=O)NCc2cccc(Cl)c2F)c2ccccc21 [Example 468]
stdout: 2.54

====

# Study Target: Factor D (Homo sapiens (Human), UniProt P00746)
# Test Description: biochemical
# Assay type: biochemical
# Applied Conditions: read-out: IC50
Where a name gives a salt, the structure may show the parent alone.
Please respond with reported log10 IC50 for every item in the list.
Response schema: value (number) is log10 of IC50 in units of nM.

stdin: Note down log10 IC50 recorded for `CC(=O)c1cn(CC(=O)N2C[C@](C)(F)C[C@H]2C(=O)NCc2cccc(Cl)c2F)c2ccccc12`
stdout: 1.85

stdin: Note down log10 IC50 recorded for CC(=O)c1cn(CC(=O)N2C[C@H](F)[C@@H](OCCN(C)C)[C@H]2C(=O)NCc2cccc(Cl)c2F)c2ccccc12 [Example 634, formate]
stdout: 1.72

stdin: Note down log10 IC50 recorded for `NC(=O)c1cn(CC(=O)N2CCS[C@H]2C(=O)NCc2cccc(Cl)c2F)c2ccccc12`
stdout: 2.47

stdin: Note down log10 IC50 recorded for `CC(=O)n1cc(NC(=O)N2C[C@@](F)(CN)C[C@H]2C(=O)NCc2cccc(Cl)c2F)c2ccccc21`
stdout: 1.15

stdin: Note down log10 IC50 recorded for `COC(=O)COc1ccc2c(NC(=O)N3[C@@H]4C[C@@H]4C[C@H]3C(=O)NCc3cccc(Cl)c3F)cn(C(N)=O)c2c1`
stdout: 1.85

stdin: Note down log10 IC50 recorded for `NC(=O)n1cc(NC(=O)N2C[C@H](F)C[C@H]2C(=O)Nc2cncc(Cl)c2)c2ccccc21`
stdout: 2.20

stdin: Note down log10 IC50 recorded for `Cc1nccc2c(C(N)=O)nn(CC(=O)N3[C@@H]4C[C@@H]4C[C@H]3C(=O)N[C@H](C)c3cccc(Cl)c3F)c12`
stdout: 0.78
